- assay-overview: chemical genetic growth profiling, strain panel (AID 1159580);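 also: tested at 20 µM; growth read once vehicle control cultures reached saturation at 30 °C; 1 = growth at the plate median or of vehicle wells; lower values mean less growth of the strain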
- measurement-conditions: S. cerevisiae deletion strains, growth OD, locus YMR231W, strain pep5, hits give low values
Screen size: about 5,500 compounds; about 2,000 (36%) were called active. Not shown: some 18% with an inconclusive outcome. The list shows a part of the results.
Measured normalized growth values are reported for all entries that follow.
experimental-endpoint: normalized growth

C1CNCCN1 | 1.02
Nc1ncnc2c1ncn2[C@@H]1O[C@H](CO)[C@@H](O)[C@H]1O | 0.992
NC(=NCCC[C@H](N)C(=O)O)NC(CCC(=O)O)C(=O)O (stereo not given in full) | 0.989
N[C@@H](Cc1ccc(O)c(O)c1)C(=O)O | 0.992
O=[N+]([O-])c1cc(O)c(O)c([N+](=O)[O-])c1 | 1.02
Nc1ccc([As](=O)(O)O)cc1 | 1
Nc1ncnc2c1ncn2C1O[C@H](COP(=O)(O)O)[C@@H](O)[C@H]1O (stereo not given in full) | 0.999
O=C(O[C@@H]1Cc2c(O)cc(O)cc2O[C@@H]1c1cc(O)c(O)c(O)c1-c1c([C@H]2Oc3cc(O)cc(O)c3C[C@H]2O)cc(O)c(O)c1O)c1cc(O)c(O)c(O)c1 | 0.942
C=C(C)C1CC=C(CO)CC1 (stereo not given) | 0.971
Cc1c(O)c(O)cc2c1CC=C1[C@@]2(C)CC[C@@]2(C)C3C[C@](C)(C(=O)O)CC[C@]3(C)CC[C@]12C (stereo not given in full) | 0.361

----------
- assay-overview: chemical genetic growth profiling, strain panel (AID 1159580);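 also: tested at 20 µM; growth read once vehicle control cultures reached saturation at 30 °C; 1 = growth at the plate median or of vehicle wells; lower values mean less growth of the strain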
- measurement-conditions: S. cerevisiae deletion strains, growth OD, locus YLL041C, strain sdh2, hits give low values
Out of some 5,500 compounds screened, about 2,000 (36%) were called active. About 18% were inconclusive and are not listed. This is one part of the list.
experimental-endpoint: normalized growth

COc1cc(OC)c2c(=O)c(-c3ccccc3)c(C)oc2c1OC | 1
CCN(CC)CCOc1ccc(/C(=C(\Cl)c2ccccc2)c2ccccc2)cc1 | 0.129
CCCCC(CC)CN1CN(CC(CC)CCCC)CC(C)(N)C1 (centres undefined) | 0.0528
N[C@@H](Cc1ccc(O)c(O)c1)C(=O)O | 1
OC[C@@H](O)[C@@H](O[C@@H]1O[C@H](CO)[C@@H](O)[C@H](O)[C@H]1O)[C@H](O)[C@@H](O)CO | 0.989
CN(C)CCOc1ccc(/C(=C(/CCCl)c2ccccc2)c2ccccc2)cc1 | 0.0691
C[C@H](N)[C@H](O)c1ccc(O)c(O)c1 | 1.01
O=[N+]([O-])c1ccc(O)c([N+](=O)[O-])c1 | 0.82
CCOC(=O)c1oc2c(OC)c(O)cc(O)c2c(=O)c1-c1cc(OC)c(OC)c(OC)c1 | 0.974
CN[C@H](CC(=O)O)C(=O)O | 1.01
C1CCN2CC3CC(CN4CCCCC34)C2C1 (centres undefined) | 1.02
CC(C)NCC(O)c1ccc2ccccc2c1 (centres undefined) | 0.998
Oc1c(Br)cc(Br)c2cccnc12 | 0.0602
NC(=NCCC[C@H](N)C(=O)O)NC(CCC(=O)O)C(=O)O (some centres undefined) | 1.01
C1CCN2C[C@@H]3C[C@H](CN4CCCC[C@@H]34)[C@H]2C1 | 0.999
Cc1c(O)c(O)cc2c1CC=C1[C@@]2(C)CC[C@@]2(C)C3C[C@](C)(C(=O)O)CC[C@]3(C)CC[C@]12C (some centres undefined) | 0.645
CC(=O)c1c(O)c(C)c(O)c2c1OC1=CC(=O)C(C(C)=O)C(=O)C12C (centres undefined) | 0.936
CC(=O)NCCCCCC(=O)O | 0.994
CN(C)CCOC(C)(c1ccccc1)c1ccccn1 (centres undefined) | 0.963
C=CC(C1=CC(=O)C=CC1=O)c1ccccc1 (centres undefined) | 1.01
CC(=O)Nc1cc([As](=O)(O)O)ccc1O | 1
C=CC(C1=CC(=O)C(OC)=CC1=O)c1ccc(O)cc1 (centres undefined) | 1.01
CCC(Cc1c(I)cc(I)c(N)c1I)C(=O)O (centres undefined) | 0.954
COc1cc(C(=O)NCc2ccc(OCCN(C)C)cc2)cc(OC)c1OC | 1
CC1(C)C(=O)C=C[C@@]2(C)C1=C(O)C(=O)[C@]1(C)C2CC[C@@]2(C)[C@H](c3ccoc3)C[C@H]3O[C@]321 (some centres undefined) | 0.991
C=CCC1(C(C)CCC)C(=O)N=C(S)NC1=O (centres undefined) | 0.974
CO[C@H]1/C=C/O[C@@]2(C)Oc3c(C)c(O)c4c(O)c(c5c(nc6cc(C)ccn65)c4c3C2=O)NC(=O)/C(C)=C\C=C\[C@H](C)[C@H](O)[C@@H](C)C(O)[C@@H](C)[C@H](OC(C)=O)[C@@H]1C (some centres undefined) | 1.04
CN/C(=C\[N+](=O)[O-])NCCSCc1ccc(CN(C)C)o1 | 0.979
NCCCC[C@H](N[C@@H](CCc1ccccc1)C(=O)O)C(=O)N1CCC[C@H]1C(=O)O | 0.97
C=C[C@@H](C1=CC(=O)C(OC)=C(OC)C1=O)c1ccccc1 | 0.811
OC[C@@H]1CCCN2CCCC[C@H]12 | 1.01
O=[N+]([O-])c1cc([As](=O)(O)O)ccc1O | 0.965
CCN(CC)CCNC(=O)c1cc(S(C)(=O)=O)ccc1OC | 0.972
CCCC(C)C1(CC)C(=O)N=C(S)NC1=O (centres undefined) | 0.994
O=C(O[C@@H]1Cc2c(O)cc(O)cc2O[C@@H]1c1cc(O)c(O)c(O)c1-c1c([C@H]2Oc3cc(O)cc(O)c3C[C@H]2O)cc(O)c(O)c1O)c1cc(O)c(O)c(O)c1 | 1.04
CO[C@H]1/C=C/O[C@@]2(C)Oc3c(C)c(O)c4c(O)c(c(/C=N/N5CCN(C)CC5)c(O)c4c3C2=O)NC(=O)/C(C)=C\C=C\C(C)[C@H](O)[C@@H](C)[C@@H](O)[C@@H](C)[C@@H](OC(C)=O)[C@@H]1C (some centres undefined) | 1.02
COc1c2c(cc3c1OCO3)CCN(C)C2 | 1.01
O=C(NC(=O)c1c(F)cccc1F)Nc1ccc(Cl)cc1 | 1.01
CC(C)NCC(O)c1ccc(O)c(O)c1 (centres undefined) | 0.99
